tgt: Kras and SOS1 (biotin-tagged human Kras loaded with GDP, His-tagged human SOS1) (Homo sapiens, UniProt P01116, G12D)
Construct: made in house; host or cells: E. coli (stated for Kras only)
Sequence (P01116 1-188 isoform P01116-2 G12D): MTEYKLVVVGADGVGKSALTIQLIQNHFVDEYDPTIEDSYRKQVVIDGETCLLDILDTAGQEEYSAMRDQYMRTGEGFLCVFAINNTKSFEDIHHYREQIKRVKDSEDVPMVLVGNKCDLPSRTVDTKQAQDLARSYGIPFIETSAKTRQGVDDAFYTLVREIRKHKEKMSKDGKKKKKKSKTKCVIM
test.summary: Protein-protein interaction inhibition between Kras and SOS1 (KrasGl2D-SOS PPI) using AlphaScreen
Format: binding
condition.label: AlphaScreen; biotin-tagged human Kras loaded with GDP, His-tagged human SOS1; read-out: KRAS G12D-SOS PPI IC50
pIC50: −log10 of the molar value. Positions of bridges follow the written chain, without caps; N, C: chain ends. Non-standard residues stand in square brackets, D forms with d. Residues, ends and D or L forms follow the SMILES beside them. *: point of attachment. hPhe(3-Cl-4-CF3) = N[C@@H](CCc1ccc(C(F)(F)F)c(Cl)c1)C(=O)O; hPhe(3-F,4-CF3) = N[C@@H](CCc1ccc(C(F)(F)F)c(F)c1)C(=O)O; NMePhe(4-CF3) = CN[C@@H](Cc1ccc(C(F)(F)F)cc1)C(=O)O; NMeAbu(4,4,4-F3) = CN[C@@H](CC(F)(F)F)C(=O)O; NMePhe(4-Cl) = CN[C@@H](Cc1ccc(Cl)cc1)C(=O)O; NMePhe(4-Me) = CN[C@@H](Cc1ccc(C)cc1)C(=O)O; NMePhe(4-I) = CN[C@@H](Cc1ccc(I)cc1)C(=O)O; Leu(4,5-dehydro) = C=C(C)C[C@H](N)C(=O)O; NMeGly(cPent) = CN[C@H](C(=O)O)C1CCCC1; Phe(3-I) = N[C@@H](Cc1cccc(I)c1)C(=O)O; NMeGly(cBu) = CN[C@H](C(=O)O)C1CCC1; NMeCha = CN[C@@H](CC1CCCCC1)C(=O)O; Gly(N-(CH2)2OEt) = CCOCCNCC(=O)O; NMeChg = CN[C@H](C(=O)O)C1CCCCC1; NMeI = CC[C@H](C)[C@H](NC)C(=O)O; Gly(cBu) = N[C@H](C(=O)O)C1CCC1; NMeD = CN[C@@H](CC(=O)O)C(=O)O; NMeL = CN[C@@H](CC(C)C)C(=O)O; NMeV = CN[C@H](C(=O)O)C(C)C; d(β3hA) = C[C@@H](N)CC(=O)O; NMeAbu = CC[C@H](NC)C(=O)O; Morpholide = C1CN(*)CCO1; NMeA = CN[C@@H](C)C(=O)O; NMeAib = CNC(C)(C)C(=O)O; Piperidide = C1CCN(*)CC1; Ac5c = NC1(C(=O)O)CCCC1; Aze = O=C(O)[C@@H]1CCN1; Sar = CNCC(=O)O
Overview of reported pIC50 across a group of compounds:
observable: pIC50

1. CC[C@H](C)[C@@H]1NC(=O)[C@H](CC(F)(F)F)N(C)C(=O)C[C@@H](C(=O)N2CCOCC2)N(C)C(=O)[C@H](C2CCCCC2)N(C)C(=O)C2(CCCC2)NC(=O)[C@@H]2CCCN2C(=O)[C@H](CCc2ccc(C(F)(F)F)c(Cl)c2)NC(=O)CN(C)C(=O)[C@H](Cc2ccc(C(F)(F)F)cc2)N(C)C(=O)CN(C)C(=O)CN(C)C1=O [Compound 981] ([NMeAbu(4,4,4-F3)]I[Sar][Sar][NMePhe(4-CF3)][Sar][hPhe(3-Cl-4-CF3)]P[Ac5c][NMeChg][NMeD]-Morpholide; lactam N-11) | 9.43
2. C=C(C)C[C@@H]1NC(=O)[C@H](Cc2cccc(I)c2)NC(=O)CN(C)C(=O)[C@H](Cc2ccc(Cl)cc2)N(C)C(=O)CN(C)C(=O)CN(C)C(=O)[C@H]([C@@H](C)CC)NC(=O)[C@H](CC(C)C)N(C)C(=O)C[C@@H](C(=O)N2CCCCC2)N(C)C(=O)[C@H](CC(C)C)NC(=O)C(C)(C)N(C)C1=O [Compound 1421] ([NMeL]I[Sar][Sar][NMePhe(4-Cl)][Sar][Phe(3-I)][Leu(4,5-dehydro)][NMeAib]L[NMeD]-Piperidide; lactam N-11) | 7.49
3. CC[C@H](C)[C@@H]1NC(=O)[C@H](C2CCCC2)N(C)C(=O)C[C@@H](C)NC(=O)[C@H](C(C)C)N(C)C(=O)C2(CCCC2)NC(=O)[C@@H]2CCCN2C(=O)[C@H](CCc2ccc(C(F)(F)F)c(Cl)c2)NC(=O)CN(C)C(=O)[C@H](CC2CCCCC2)N(C)C(=O)[C@@H]2CCN2C(=O)[C@H](C)N(C)C1=O [Compound 570] (cyclo([Ac5c][NMeV][d(β3hA)][NMeGly(cPent)]I[NMeA][Aze][NMeCha][Sar][hPhe(3-Cl-4-CF3)]P)) | 7.57
4. CC[C@H](C)[C@@H]1NC(=O)[C@H](CC(C)C)N(C)C(=O)C[C@@H](C(=O)N2CCCCC2)N(C)C(=O)[C@H](C2CCCCC2)N(C)C(=O)C2(CCCC2)NC(=O)[C@@H]2CCCN2C(=O)[C@H](CCc2ccc(C(F)(F)F)c(Cl)c2)NC(=O)CN(C)C(=O)[C@H](C2CCC2)N(C)C(=O)CN(C)C(=O)CN(C)C1=O [Compound 936] ([NMeL]I[Sar][Sar][NMeGly(cBu)][Sar][hPhe(3-Cl-4-CF3)]P[Ac5c][NMeChg][NMeD]-Piperidide; lactam N-11) | 8.96
5. CC[C@H](C)[C@@H]1NC(=O)[C@H](CC(C)C)N(C)C(=O)C[C@@H](C)NC(=O)[C@H](CC)N(C)C(=O)C2(CCCC2)NC(=O)[C@@H]2CCCN2C(=O)[C@H](CCc2ccc(C(F)(F)F)c(F)c2)NC(=O)CN(C)C(=O)[C@H](CC2CCCCC2)N(C)C(=O)CN(C)C(=O)CN(C)C1=O [Compound 1469] (cyclo([Ac5c][NMeAbu][d(β3hA)][NMeL]I[Sar][Sar][NMeCha][Sar][hPhe(3-F,4-CF3)]P)) | 6.64
6. CC[C@H](C)[C@@H]1NC(=O)[C@H](C)N(C)C(=O)C[C@@H](C(=O)N(C)C)N(C)C(=O)[C@H]([C@@H](C)CC)N(C)C(=O)C2(CCCC2)NC(=O)[C@H](Cc2ccc(I)cc2)N(C)C(=O)[C@H](CCc2ccc(C(F)(F)F)c(Cl)c2)NC(=O)CN(C)C(=O)[C@H](Cc2ccc(C)cc2)N(C)C(=O)[C@@H]2CCN2C(=O)[C@H](C)N(C)C1=O [Compound 1953] ([NMeA]I[NMeA][Aze][NMePhe(4-Me)][Sar][hPhe(3-Cl-4-CF3)][NMePhe(4-I)][Ac5c][NMeI][NMeD]-NMe2; lactam N-11) | 7.29
7. CC(C)C[C@H]1C(=O)N[C@@H](C2CCC2)C(=O)N(C)CC(=O)N(C)CC(=O)N(C)[C@@H](CC2CCCCC2)C(=O)N(C)CC(=O)N[C@@H](CCc2ccc(C(F)(F)F)c(Cl)c2)C(=O)N2CCC[C@H]2C(=O)NC2(CCCC2)C(=O)N(C)[C@@H](C(C)C)C(=O)N(C)[C@H](C(=O)N2CCCCC2)CC(=O)N1C [Compound 221] ([NMeL][Gly(cBu)][Sar][Sar][NMeCha][Sar][hPhe(3-Cl-4-CF3)]P[Ac5c][NMeV][NMeD]-Piperidide; lactam N-11) | 8.55
8. CC[C@H](C)[C@@H]1NC(=O)[C@H](CC(C)C)N(C)C(=O)C[C@@H](C(=O)N(C)C)N(C)C(=O)[C@H](C2CCCC2)N(C)C(=O)[C@H](C(C)C)NC(=O)[C@H](C)N(C)C(=O)[C@H](CCc2ccc(C(F)(F)F)c(Cl)c2)NC(=O)CN(C)C(=O)[C@H](CC2CCCCC2)N(C)C(=O)[C@@H]2CCN2C(=O)[C@H](C)N(C)C1=O [Compound 102] ([NMeL]I[NMeA][Aze][NMeCha][Sar][hPhe(3-Cl-4-CF3)][NMeA]V[NMeGly(cPent)][NMeD]-NMe2; lactam N-11) | 7.96
9. CCOCCN1CC(=O)N(C)CC(=O)N(C)[C@@H](CC2CCCCC2)C(=O)N(C)CC(=O)N[C@@H](CCc2ccc(C(F)(F)F)c(Cl)c2)C(=O)N2CCC[C@H]2C(=O)NC2(CCCC2)C(=O)N(C)[C@@H](C(C)C)C(=O)N[C@H](C)CC(=O)N(C)[C@@H](CC(C)C)C(=O)N[C@@H]([C@@H](C)CC)C1=O [Compound 329] (cyclo([Ac5c][NMeV][d(β3hA)][NMeL]I[Gly(N-(CH2)2OEt)][Sar][NMeCha][Sar][hPhe(3-Cl-4-CF3)]P)) | 7.40
